Collected IC50 values appear next to each entry.
- assayed.system: human BRAF (Homo sapiens, UniProt P15056)
- Sequence (P15056 whole entry): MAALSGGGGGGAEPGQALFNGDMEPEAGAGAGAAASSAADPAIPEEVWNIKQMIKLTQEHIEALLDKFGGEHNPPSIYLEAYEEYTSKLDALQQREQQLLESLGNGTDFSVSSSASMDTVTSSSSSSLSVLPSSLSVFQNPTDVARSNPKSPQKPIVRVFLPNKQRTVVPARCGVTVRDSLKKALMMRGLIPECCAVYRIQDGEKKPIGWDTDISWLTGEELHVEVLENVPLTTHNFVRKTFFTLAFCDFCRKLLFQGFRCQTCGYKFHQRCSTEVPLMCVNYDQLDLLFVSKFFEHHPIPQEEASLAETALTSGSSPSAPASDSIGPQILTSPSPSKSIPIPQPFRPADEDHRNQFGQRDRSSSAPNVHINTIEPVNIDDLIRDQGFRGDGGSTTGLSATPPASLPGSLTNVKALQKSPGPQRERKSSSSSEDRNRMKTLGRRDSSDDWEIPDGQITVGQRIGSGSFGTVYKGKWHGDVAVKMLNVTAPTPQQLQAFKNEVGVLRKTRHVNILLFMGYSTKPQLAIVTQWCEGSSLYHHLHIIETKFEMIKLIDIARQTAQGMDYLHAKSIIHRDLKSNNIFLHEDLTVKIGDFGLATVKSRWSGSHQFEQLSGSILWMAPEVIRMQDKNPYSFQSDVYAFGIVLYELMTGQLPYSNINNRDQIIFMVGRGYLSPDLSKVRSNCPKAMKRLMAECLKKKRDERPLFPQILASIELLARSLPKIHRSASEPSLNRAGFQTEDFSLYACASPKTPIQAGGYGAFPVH
- experiment: Protein kinase assay (33P-ATP filter binding), human BRAF, 10-dose IC50
- recorded.conditions: MEK1 (K97R) substrate 1 micromolar, ATP 25 micromolar, read-out: B-RAF IC50

molecule	assayed.system	IC50
Cc1cc(F)c(NC(=O)N2CCCC(C(F)(F)F)C2)cc1-c1cc(OCCO)nc(N2CCOCC2)c1 (racemic)	human BRAF (Homo sapiens, UniProt P15056)	10 to 100 nM
Cc1cc(F)c(NC(=O)N2CC[C@@H](C(F)(F)F)C2)cc1-c1cc(OCCO)nc(N2CCOCC2)c1	human BRAF (Homo sapiens, UniProt P15056)	10 to 100 nM
Cc1cc(F)c(NC(=O)N2CCC(C(C)(C)C)C2)cc1-c1cc(OCCO)nc(N2CCOCC2)c1 (racemic)	human BRAF (Homo sapiens, UniProt P15056)	10 to 100 nM
Cc1cc(F)c(NC(=O)N2CCNC(C(C)(C)C)C2)cc1-c1cc(OCCO)nc(N2CCOCC2)c1 (racemic)	human BRAF (Homo sapiens, UniProt P15056)	100 to 1000 nM
Cc1cc(F)c(NC(=O)N2CCCC(C(C)(C)C)C2)cc1-c1cc(OCCO)nc(N2CCOCC2)c1 (racemic)	human BRAF (Homo sapiens, UniProt P15056)	10 to 100 nM
